type: in vivo, human; details: male, human, in vivo, po, 9.6 g
Observable: half-life (min)
// units = min; emit number, no label

Challenge: Supply recorded half-life for O=C(O)[C@H]1O[C@@H](Oc2cc3oc(-c4ccccc4)cc(=O)c3c(O)c2O)[C@H](O)[C@@H](O)[C@@H]1O here.
Response given: 867

###

Freeze-thaw stability (3 cycles) listing for selected compounds.
test: Freeze-thaw stability in human plasma; format: in vitro ADME; details: −80 °C/25 °C, spiked conc. 400 ng/mL, mean ± SD, n = 5, %
// units = %; emit number, no label

Challenge: Supply recorded Freeze-thaw stability (3 cycles) for O=c1ccc2cc3ccoc3c(O)c2o1 here.
Response given: 98.83

Challenge: Supply recorded Freeze-thaw stability (3 cycles) for C=C1CCC[C@]2(C)C[C@]3(O)OC(=O)C(C)=C3C[C@@H]12 [Atractylenolide III, atractylenolide III] here.
Response given: 96.73

Challenge: Supply recorded Freeze-thaw stability (3 cycles) for C=CCc1ccc(OC)c(OC)c1 here.
Response given: 101.10

Challenge: Supply recorded Freeze-thaw stability (3 cycles) for O=C(O)[C@H]1O[C@@H](Oc2cc3oc(-c4ccccc4)cc(=O)c3c(O)c2O)[C@H](O)[C@@H](O)[C@@H]1O here.
Response given: 97.95

Challenge: Supply recorded Freeze-thaw stability (3 cycles) for CC(C)=CC(O)C/C(C)=C/COc1c2ccoc2cc2oc(=O)ccc12 (stereo not drawn) here.
Response given: 99.46

Challenge: Supply recorded Freeze-thaw stability (3 cycles) for O=c1cc(-c2ccccc2)oc2cc(O)c(O)c(O)c12 here.
Response given: 100.00

Challenge: Supply recorded Freeze-thaw stability (3 cycles) for CC1(C)[C@@H](O[C@H]2O[C@H](C(=O)O)[C@@H](O)[C@H](O)[C@H]2O[C@@H]2O[C@H](C(=O)O)[C@@H](O)[C@H](O)[C@H]2O)CC[C@]2(C)[C@H]3C(=O)C=C4[C@@H]5C[C@@](C)(C(=O)O)CC[C@]5(C)CC[C@@]4(C)[C@]3(C)CC[C@@H]12 here.
Response given: 99.43

Challenge: Supply recorded Freeze-thaw stability (3 cycles) for CC1(C)O[C@H]1COc1c2ccoc2cc2oc(=O)ccc12 here.
Response given: 99.31

Challenge: Supply recorded Freeze-thaw stability (3 cycles) for CC(C)=CCOc1c2occc2cc2ccc(=O)oc12 here.
Response given: 101.28

###

Cmax listing for selected molecules.
format: in vivo, human; conditions: male, human, plasma, po, 9.6 g

Molecule: O=c1cc(-c2ccccc2)oc2cc(O)c(O)c(O)c12
Cmax: 52.6 ng/mL

Molecule: CC1(C)[C@@H](O[C@H]2O[C@H](C(=O)O)[C@@H](O)[C@H](O)[C@H]2O[C@@H]2O[C@H](C(=O)O)[C@@H](O)[C@H](O)[C@H]2O)CC[C@]2(C)[C@H]3C(=O)C=C4[C@@H]5C[C@@](C)(C(=O)O)CC[C@]5(C)CC[C@@]4(C)[C@]3(C)CC[C@@H]12
Cmax: 2.16 ng/mL

Molecule: O=c1ccc2cc3ccoc3c(O)c2o1
Cmax: 3.78 ng/mL

Molecule: C=C1CCC[C@]2(C)C[C@]3(O)OC(=O)C(C)=C3C[C@@H]12 [Atractylenolide III, atractylenolide III]
Cmax: 17.5 ng/mL

Molecule: CC1(C)O[C@H]1COc1c2ccoc2cc2oc(=O)ccc12
Cmax: 4.46 ng/mL

// switching to the query molecule
Challenge: Supply recorded Cmax for CC1(C)[C@@H](O)CC[C@]2(C)[C@H]3C(=O)C=C4[C@@H]5C[C@@](C)(C(=O)O)CC[C@]5(C)CC[C@@]4(C)[C@]3(C)CC[C@@H]12 here.
Response given: 89.7 ng/mL
